Data credit: ChEMBL document CHEMBL4689842

tested on: U2OS; assay: Multiplex assay against U2OS; assay type: toxicity, cell-based; details: human, 24 h, 1 µM, compound concentration 1 uM, replicate 1
Provide the recorded Population Apoptotic (%) for the entries that follow.
Numbers only, in %.

Would you please look over these solved cases?
{"molecule": "COc1cc2c(NC3CCN(C(C)C)CC3)nc(N3CCC(F)(F)CC3)nc2cc1OCCCN1CCCC1", "unit-of-measure": "%", "Population Apoptotic (%)": 31}
{"molecule": "O=C(O)c1ccc2cc(-c3ccc(O)c(C45CC6CC(CC(C6)C4)C5)c3)ccc2c1", "unit-of-measure": "%", "Population Apoptotic (%)": 30}
{"molecule": "Cc1nc(Cc2cccc(C(F)(F)F)c2)sc1-c1ccc(C(N)=O)nc1 [TP-024n]", "unit-of-measure": "%", "Population Apoptotic (%)": 46}
{"molecule": "c1ccc2oc(-c3csc(C4CCN(Cc5nc6ncccc6[nH]5)CC4)n3)cc2c1", "unit-of-measure": "%", "Population Apoptotic (%)": 40}
{"molecule": "Cc1cc2c(cc1N1C(=O)c3cccc4c(CCCO)ccc(c34)C1=O)n(C)c(=O)n2C", "unit-of-measure": "%", "Population Apoptotic (%)": 38}

// for each molecule below, give its Population Apoptotic (%)
1. Nc1nc2c(c(N3CCNCC3)n1)CCC1=C2[C@@H]2CCCC[C@@H]2O1
2. CC(C)Oc1ccc(C(=O)N[C@H](CNC(=O)CN(C)C)Cc2ccc(-c3cn4cccc([C@H](C)O)c4n3)cc2)cc1Cl [GSK-923295A]
3. CCCn1c(=O)c2[nH]c(C34CC5CC(CC3C5)C4)nc2n(CCC)c1=O

1. 39
2. 24
3. 50
